Reference for the values: PubChem BioAssay AID485

- ASSAYED TARGET: Sphingosine 1-phosphate receptor 3 (Homo sapiens) (UniProt Q99500)
- Sequence (Q99500 whole entry, looked up): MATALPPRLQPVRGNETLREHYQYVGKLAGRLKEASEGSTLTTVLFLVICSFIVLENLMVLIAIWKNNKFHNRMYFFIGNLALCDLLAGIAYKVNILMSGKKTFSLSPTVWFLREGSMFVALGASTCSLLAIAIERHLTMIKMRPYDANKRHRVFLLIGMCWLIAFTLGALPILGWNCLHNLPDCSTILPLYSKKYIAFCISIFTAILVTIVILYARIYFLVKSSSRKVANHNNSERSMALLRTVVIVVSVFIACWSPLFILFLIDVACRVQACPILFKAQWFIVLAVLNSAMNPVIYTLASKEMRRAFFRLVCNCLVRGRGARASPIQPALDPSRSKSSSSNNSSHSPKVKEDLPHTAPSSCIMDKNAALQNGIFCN
- ASSAY METHOD TEXT: S1P3 receptor antagonists, primary screen, cell-based (AID 485);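 further: cells challenged with S1P at its EC80 of 0.8 µM; blue over green emission ratio from cleaved BLA substrate after 4 h stimulation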
- SETUP CONDITIONS: CHO S1P3 NFAT-BLA reporter, FRET fluorescence, antagonist mode; at 4.98 µM
The campaign covered roughly 170,000 compounds. About 460 (0.27%) were called active.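 How the source made its calls: active means inhibition above the plate cutoff, the mean inhibition of test wells on that plate plus 3 SD (cut at about 28% in these data); inactive means the rest.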 The entries come from a sample that favours actives as a whole.
// classify into active, inactive

O=[N+]([O-])c1ccc(F)cc1Oc1nc(-c2cccnc2)nc2ccccc12	inactive
COc1ccc(CC(=O)N[C@@H](CCSC)c2nc3ccccc3[nH]2)cc1	inactive
COc1ccc(N2CCN(C(=O)/C(C#N)=C/c3ccccc3)CC2)cc1	inactive

Exercise: Hello, I am checking results. What call was entered for CCOC(=O)C1=C(c2ccccc2)NC(=S)NC1c1ccc(Cl)cc1 (stereo not given) ?
Solution: inactive

Exercise: Hello, I am checking results. What call was entered for S=C(NCCc1ccccc1)NCC1CCCO1 (stereo not given) ?
Solution: active

Exercise: Hello, I am checking results. What call was entered for O=C1c2ccccc2NC(c2ccccn2)N1NS(=O)(=O)c1ccccc1 (stereo not given) ?
Solution: inactive

Exercise: Hello, I am checking results. What call was entered for O=C(NCCc1c[nH]c2ccccc12)C(=O)NCC1CCCO1 (stereo not given) ?
Solution: inactive

Exercise: Hello, I am checking results. What call was entered for O=C(CS(=O)(=O)Cc1ccccc1)NCC1CCCO1 (stereo not given) ?
Solution: inactive

Exercise: Hello, I am checking results. What call was entered for COc1ccc(Cc2cc(-c3ccc(F)cc3)n[nH]c2=O)cc1 ?
Solution: inactive

Exercise: Hello, I am checking results. What call was entered for CCC(C)(C)NC(=O)CN(Cc1cccs1)C(=O)CNS(=O)(=O)c1ccc(F)cc1 ?
Solution: inactive
